subject of test: human neprilysin (EC 3.4.24.11; NEP) (Homo sapiens)
Construct: purchased R&D Systems, Minneapolis, Minn; 1182-ZN
Sequence (P08473 52-750 limits assumed): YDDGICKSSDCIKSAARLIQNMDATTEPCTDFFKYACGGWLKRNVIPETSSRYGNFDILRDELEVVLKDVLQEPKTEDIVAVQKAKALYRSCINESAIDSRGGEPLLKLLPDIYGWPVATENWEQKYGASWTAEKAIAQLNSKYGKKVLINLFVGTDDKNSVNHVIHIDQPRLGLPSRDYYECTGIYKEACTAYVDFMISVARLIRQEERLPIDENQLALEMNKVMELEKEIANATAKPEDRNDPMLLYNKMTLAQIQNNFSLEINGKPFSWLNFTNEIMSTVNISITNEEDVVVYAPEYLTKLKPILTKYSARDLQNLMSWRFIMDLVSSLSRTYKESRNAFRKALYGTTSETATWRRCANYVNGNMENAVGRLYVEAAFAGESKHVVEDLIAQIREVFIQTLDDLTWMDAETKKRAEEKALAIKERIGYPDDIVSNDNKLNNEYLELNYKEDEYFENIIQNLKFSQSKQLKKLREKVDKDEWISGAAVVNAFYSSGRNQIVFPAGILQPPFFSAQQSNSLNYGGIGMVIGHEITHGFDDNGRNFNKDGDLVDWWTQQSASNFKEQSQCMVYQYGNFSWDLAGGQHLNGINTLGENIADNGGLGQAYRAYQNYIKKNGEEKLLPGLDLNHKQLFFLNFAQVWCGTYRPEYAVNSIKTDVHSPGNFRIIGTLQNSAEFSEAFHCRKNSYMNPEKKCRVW
assay protocol: In vitro enzyme inhibition assay at human NEP (fluorogenic peptide substrate)
Assay type: biochemical
condition details: recombinant human NEP; 37° C.; substrate Mca-D-Arg-Arg-Leu-Dap-(Dnp)-OH 10 μM; values given as ranges; read-out: pKi values at human NEP (converted)
Record form. Attribute: Ki. Fill in for each entry.

Given the compound "Cc1nnnn1Cc1ccc(C(=O)N[C@H](Cc2ccccc2)[C@@H](O)C(=O)O)cc1" , write its reported Ki.
12.6 to 100 nM

Respond only with Ki recorded for "Cc1cc(C)n(-c2cccc(C(=O)N[C@H](Cc3ccccc3)[C@@H](O)C(=O)O)c2)n1"
12.6 to 100 nM

Input "O=C(N[C@H](Cc1ccccc1)[C@@H](O)C(=O)O)c1cccc(-c2cccnc2C(=O)O)c1" , output reported Ki.
12.6 to 100 nM

Complete the entry with Ki for "O=C(Nc1ccc(C(=O)N[C@H](Cc2ccccc2)[C@@H](O)C(=O)O)cc1)Nc1sccc1C(=O)O"
12.6 to 100 nM

###

subject of test: human neprilysin (EC 3.4.24.11; NEP) (Homo sapiens)
Construct: purchased R&D Systems, Minneapolis, Minn; 1182-ZN
assay protocol: In vitro enzyme inhibition assay at human NEP (fluorogenic peptide substrate)
Assay type: biochemical
condition details: recombinant human NEP; 37° C.; substrate Mca-D-Arg-Arg-Leu-Dap-(Dnp)-OH 10 μM; values given as ranges; read-out: pKi values at human NEP (converted)
Task for the reader: assign each of the following compounds its reported Ki.

Please look at this compound and report its Ki: O=C(O)C[C@@H](Cc1ccccc1Cl)NC(=O)CCCc1ccccc1C(=O)O [Example 11]
1.26 to 10 nM

Note Ki for the compound shown: O=C(N[C@H](Cc1ccccc1)[C@@H](O)C(=O)O)c1ccc(N2CCOCC2)c(-c2ccccc2C(=O)O)c1 [Example 10-21]
12.6 to 100 nM

Specify Ki for O=C(N[C@H](Cc1ccccc1Cl)[C@@H](O)C(=O)O)c1ccc(-c2ccccc2C(=O)O)c(F)c1 [Example 6-9] and stop.
1.26 to 10 nM

In one line, give reported Ki of the entry CCCCCc1ccc(C(=O)N[C@H](Cc2ccccc2)[C@@H](O)C(=O)O)cc1 [Example 10-38] .
12.6 to 100 nM

Hello, please tell me recorded Ki for this one: O=C(N[C@H](Cc1ccccc1)[C@@H](O)C(=O)O)c1cccc(-c2ccccc2C(=O)O)c1 [Example 10-9]
12.6 to 100 nM

Complete the entry with Ki for O=C(N[C@H](Cc1ccccc1)[C@@H](O)C(=O)O)c1ccc(Cn2cccc2)cc1 [Example 10-44]
12.6 to 100 nM

Kindly indicate its recorded Ki. Item: O=C(O)c1cccc(-c2ccc(C(=O)N[C@H](Cc3ccccc3)[C@@H](O)C(=O)O)cc2)c1 [Example 10-51]
12.6 to 100 nM

In one line, give reported Ki of the entry O=C(N[C@H](Cc1ccccc1)[C@@H](O)C(=O)O)c1ccc(C2CC2)cc1 [Example 10-39] .
12.6 to 100 nM

Assign Ki to the following record: CCc1ccc(C(=O)N[C@H](Cc2ccccc2)[C@@H](O)C(=O)O)cc1NC(=O)Nc1sc(C)cc1C(=O)O [Example 10-77]
≤ 1 nM

Give me measured Ki, please, for this compound: Cc1ccc(C(=O)N[C@@H](CC(=O)O)Cc2ccccc2C(F)(F)F)cc1-c1ccccc1C(=O)O [Example 14]
1.26 to 10 nM

Give the value of Ki reported for the following: O=C(O)CCc1cccc(C(=O)N[C@H](Cc2ccccc2)[C@@H](O)C(=O)O)c1 [Example 10-59]
12.6 to 100 nM

Report measured Ki; entry is CCCc1ccc(C(=O)N[C@H](Cc2ccccc2)[C@@H](O)C(=O)O)cc1 [Example 10-33]
12.6 to 100 nM

Supply reported Ki belonging to this compound: CC1=NN(Cc2ccc(C(=O)N[C@H](Cc3ccccc3Cl)[C@@H](O)C(=O)O)cc2)C(=O)C1 [Example 6-19]
12.6 to 100 nM

Fill in Ki for record O=C(N[C@H](Cc1ccccc1)[C@@H](O)C(=O)O)c1cccc(-c2ccc(F)cc2C(=O)O)c1 [Example 10-10]
12.6 to 100 nM

Identify Ki associated with the compound Cc1ccc(C(=O)N[C@H](Cc2ccccc2)[C@@H](O)C(=O)O)cc1-n1ccc(C(=O)O)n1 [Example 10-8]
12.6 to 100 nM

The measurements presented in this section are drawn from patent US8686184B2.
